- System: PGF2α-sensitive receptor provisionally termed FPVASC
- procedure-text: relaxation of smooth muscle of isolated rabbit jugular vein
- Assay type: cell-based
Measured pEC50 values are reported for all entries that follow.
pEC50 is a log-scale quantity: -log10 of the concentration expressed in molar.

Below are worked cases with known answers.
CCNC(=O)CCC/C=C\C[C@@H]1[C@@H](COC(=S)NCc2cccc(Cl)c2)[C@H](O)C[C@@H]1O = 5.54
O=C(O)CCC/C=C\C[C@H]1C(O)CC(O)[C@@H]1COC(=O)NCc1ccccc1 (stereo in doubt) = 4.85
O=C(O)CCC/C=C\C[C@H]1C(O)CC(O)[C@@H]1COC(=S)NCc1ccccc1 (stereo in doubt) = 6.37
NC(=O)CCC/C=C\C[C@@H]1[C@@H](COC(=S)NCc2cccc(Cl)c2)[C@H](O)C[C@@H]1O = 6.56

// pEC50 value for O=C(O)CCC/C=C\C[C@@H]1[C@@H](COC(=O)NCc2cccc(C(F)(F)F)c2)[C@H](O)C[C@@H]1O : 5.55

The value of pEC50 measured for the molecule CCCCNC(=S)OC[C@@H]1[C@@H](C/C=C\CCCC(=O)O)[C@@H](O)C[C@H]1O turned out to be 6.77

For record O=C(O)CCC/C=C\C[C@H]1C(O)CC(O)[C@@H]1COC(=O)Nc1ccccc1 (some centres unmarked) the listed pEC50 is 3.71

For this molecule ( O=C(O)CCC/C=C\C[C@@H]1[C@@H](COC(=S)NCc2cccc(Cl)c2)[C@H](O)C[C@@H]1O ), measured pEC50 is 8.52

The measured pEC50 associated with O=C(O)CCC/C=C\C[C@@H]1[C@@H](COC(=S)NCc2cccc(C(F)(F)F)c2)[C@H](O)C[C@@H]1O reads 6.75

Please fill in: pEC50 reported for O=C(CCC/C=C\C[C@@H]1[C@@H](COC(=S)NCc2cccc(Cl)c2)[C@H](O)C[C@@H]1O)NCCO = 4.96

Given item O=C(O)CCC/C=C\C[C@@H]1[C@@H](COC(=O)NCCc2cccs2)[C@H](O)C[C@@H]1O , the value recorded as its pEC50 is 4.50
